CC50: recorded values
TEST DETAILS: GSK inMac assay, host cell toxicity readout (LD MAC)
Type: cell-based, human
CONDITION NOTES: human; footnote c; read-out: THP-1 Host Cell CC50
REPORTED ENDPOINT: CC50 (µM)

>  <COMPOUND>
CC(C)Cc1n[nH]c2c1C(c1ccccc1Cl)N(c1ccc3ncnn3c1)C2=O (centres unmarked)

>  <REPORTED ENDPOINT>
CC50

>  <QUALIFIER OPERATOR>
>

>  <OBSERVED MEASUREMENT>
20

$$$$
>  <COMPOUND>
CC(C)Cc1n[nH]c2c1C(c1ccc(F)cc1)N(c1ccc(O)cc1)C2=O (centres unmarked)

>  <REPORTED ENDPOINT>
CC50

>  <QUALIFIER OPERATOR>
=

>  <OBSERVED MEASUREMENT>
39.8

$$$$
>  <COMPOUND>
COc1ccc(N2C(=O)c3[nH]nc(-c4ccc(Cl)cc4Cl)c3C2c2ccc(F)cc2)cc1 (centres unmarked)

>  <REPORTED ENDPOINT>
CC50

>  <QUALIFIER OPERATOR>
>

>  <OBSERVED MEASUREMENT>
50

$$$$
>  <COMPOUND>
COc1ccc(N2C(=O)c3[nH]nc(CC(C)C)c3C2c2ccc(F)c(C)n2)cc1 (centres unmarked)

>  <REPORTED ENDPOINT>
CC50

>  <QUALIFIER OPERATOR>
>

>  <OBSERVED MEASUREMENT>
50

$$$$
>  <COMPOUND>
CC(C)Cc1n[nH]c2c1C(c1cccc(C(F)(F)F)c1)N(c1ccc(C(C)(C)C)cc1)C2=O (centres unmarked)

>  <REPORTED ENDPOINT>
CC50

>  <QUALIFIER OPERATOR>
=

>  <OBSERVED MEASUREMENT>
10

$$$$
>  <COMPOUND>
COc1ccc(N2C(=O)c3[nH]nc(CC(C)C)c3C2c2c(Cl)cccc2Cl)cc1F (centres unmarked)

>  <REPORTED ENDPOINT>
CC50

>  <QUALIFIER OPERATOR>
=

>  <OBSERVED MEASUREMENT>
20

$$$$
>  <COMPOUND>
COc1ccc(N2C(=O)c3[nH]nc(CC(C)C)c3C2c2ccccn2)cc1 (centres unmarked)

>  <REPORTED ENDPOINT>
CC50

>  <QUALIFIER OPERATOR>
>

>  <OBSERVED MEASUREMENT>
50

$$$$
>  <COMPOUND>
Cc1ccc(CN2C(=O)c3[nH]nc(CC(C)C)c3C2c2ccc(F)cc2)o1 (centres unmarked)

>  <REPORTED ENDPOINT>
CC50

>  <QUALIFIER OPERATOR>
=

>  <OBSERVED MEASUREMENT>
39.8

$$$$
>  <COMPOUND>
CC(C)Cc1n[nH]c2c1C(c1ccc(F)cc1)N(C(CO)CO)C2=O (centres unmarked)

>  <REPORTED ENDPOINT>
CC50

>  <QUALIFIER OPERATOR>
>

>  <OBSERVED MEASUREMENT>
50

$$$$
>  <COMPOUND>
CC(C)Cc1n[nH]c2c1C(c1ccccc1Cl)N(c1ccc(-n3ccnc3)cc1)C2=O (centres unmarked)

>  <REPORTED ENDPOINT>
CC50

>  <QUALIFIER OPERATOR>
≥

>  <OBSERVED MEASUREMENT>
50.1

$$$$
>  <COMPOUND>
COc1ccccc1C1c2c(CC(C)C)n[nH]c2C(=O)N1c1ccc(N(C)C)cc1 (centres unmarked)

>  <REPORTED ENDPOINT>
CC50

>  <QUALIFIER OPERATOR>
=

>  <OBSERVED MEASUREMENT>
3.5

$$$$
>  <COMPOUND>
CCc1ccc(N2C(=O)c3[nH]nc(CC(C)C)c3C2c2ccc(F)cc2)cc1 (centres unmarked)

>  <REPORTED ENDPOINT>
CC50

>  <QUALIFIER OPERATOR>
=

>  <OBSERVED MEASUREMENT>
20

$$$$
>  <COMPOUND>
Cc1cc(F)ccc1C1c2c(CC(C)C)n[nH]c2C(=O)N1c1ccc(-n2ccnc2)cc1 (centres unmarked)

>  <REPORTED ENDPOINT>
CC50

>  <QUALIFIER OPERATOR>
=

>  <OBSERVED MEASUREMENT>
25.1

$$$$
>  <COMPOUND>
CC(C)Cc1n[nH]c2c1C(C1CCCCC1)N(c1ccc(C(C)(C)C)cc1)C2=O (centres unmarked)

>  <REPORTED ENDPOINT>
CC50

>  <QUALIFIER OPERATOR>
≥

>  <OBSERVED MEASUREMENT>
50.1

$$$$
>  <COMPOUND>
COc1ccc(N2C(=O)c3[nH]nc(CC(C)C)c3C2c2ccccc2F)cc1 (centres unmarked)

>  <REPORTED ENDPOINT>
CC50

>  <QUALIFIER OPERATOR>
=

>  <OBSERVED MEASUREMENT>
31.6

$$$$
>  <COMPOUND>
COc1ccc(N2C(=O)c3[nH]nc(CC(C)C)c3C2c2ccc(OC)nc2)cc1 (centres unmarked)

>  <REPORTED ENDPOINT>
CC50

>  <QUALIFIER OPERATOR>
>

>  <OBSERVED MEASUREMENT>
50

$$$$
>  <COMPOUND>
CC(C)Cc1n[nH]c2c1C(c1cccc(C(F)(F)F)c1)N(c1ccc(N(C)C)cc1)C2=O (centres unmarked)

>  <REPORTED ENDPOINT>
CC50

>  <QUALIFIER OPERATOR>
=

>  <OBSERVED MEASUREMENT>
20

$$$$

Where do these numbers come from? They come from patent US20230381142A1.
